- Substrate: CC(=O)C=O
- assayOverview: purified protein
- Format: biochemical, Arabidopsis thaliana
- settings: true substrate is the hemithioacetal of MGO and GSH (preformed 30 min; HTA concentration calculated with Kdiss 3.0 mM), 1.7 mM GSH, 0.5 mM Ni2+, 100 mM MOPS pH 7.0, 25 °C
experimentalEndpoint: Km (µM)
Give bare numbers, in µM.

GLXI;2 (Col-0 GLXI;2) (Arabidopsis thaliana; K229N) (protein, monomer; two domains, active site 2 (His89, Glu137, Gln150, Glu201)) MAEASDLLEWPKKDNRRFLHVVYRVGDLDRTIEFYTEVFGMKLLRKRDIPEEKYSNAFLGFGPETSNFVVELTYNYGVSSYDIGTGFGHFAISTQDVSKLVENVRAKGGNVTREPGPVKGGGSVIAFVKDPDGYTFELIQRGPTPEPFCQVMLRVGDLDRAIKFYEKALGMRLLRKIERPEYKYTIGMMGYAEEYESIVLELTYNYDVTEYTKGNAYAQIAIGTDDVYNSGEVIKIVNQELGGKITREAGPLPGLGTKIVSFLDPDGWKTVLVDNKDFLKELE yielded Km of 295
